Biological target: Cellular tumor antigen p53 (Homo sapiens) (UniProt P04637)
Sequence (P04637 whole entry, looked up): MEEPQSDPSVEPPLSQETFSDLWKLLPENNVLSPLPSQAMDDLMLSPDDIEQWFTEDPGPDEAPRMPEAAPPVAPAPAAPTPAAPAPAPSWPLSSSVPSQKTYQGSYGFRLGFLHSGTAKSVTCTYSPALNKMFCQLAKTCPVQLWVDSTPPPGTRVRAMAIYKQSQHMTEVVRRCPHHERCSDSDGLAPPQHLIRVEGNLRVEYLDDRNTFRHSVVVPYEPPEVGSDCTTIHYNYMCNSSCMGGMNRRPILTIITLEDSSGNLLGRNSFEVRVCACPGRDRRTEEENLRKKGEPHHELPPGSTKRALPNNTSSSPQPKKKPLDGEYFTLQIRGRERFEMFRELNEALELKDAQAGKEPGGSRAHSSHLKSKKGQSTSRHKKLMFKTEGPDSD
Assay: TOX21_p53_BLA_p2_ratio: Tox21 HCT-116 p53 Agonism Beta-lactamase Assay, Ratio, Phase 2 (AID 2283592)
Description: TOX21_p53_BLA_p2 is a cell-based, single-readout assay that uses HCT116, a human intestinal cell line, […] in a 1536-well plate.TOX21_p53_BLA_p2_ratio is an assay readout measuring reporter gene via receptor activity and designed using inducible reporter (beta lactamase induction) detected with GAL4 b-lactamase reporter gene. […] This assay endpoint, TOX21_p53_BLA_p2_ratio, was analyzed in the positive analysis fitting direction relative to DMSO as the negative control and baseline of activity. […]
Inconclusive results are not listed. The source made the active and inactive calls. Rule for the calls: active = hit-call score of the fitted dose curve at least 0.9, where 1 is the maximum; inconclusive = response in the unintended direction; inactive = score below 0.9.
Respond only with the outcome that fits, drawn from active, inactive

Molecule	Class label
CCN[C@@H]1C[C@H](N)[C@@H](OC2OC(CN)=CCC2N)[C@H](O)[C@H]1O[C@H]1OC[C@](C)(O)[C@H](NC)[C@H]1O (stereo partly drawn)	inactive
CC(=O)N[C@@H](CS)C(=O)O	inactive
CC(C)(C)NCC(O)c1ccc(O)c(CO)n1 (stereo not drawn)	inactive
O=C(O)CN(CCN(CC(=O)O)CC(=O)O)CC(=O)O	inactive
CC[C@H](C)C(=O)O[C@H]1CCC=C2C=C[C@H](C)[C@H](CC[C@@H]3C[C@@H](O)CC(=O)O3)[C@H]21	inactive

# outcome recorded in this test, key = CCCc1ncc(C[n+]2ccccc2C)c(N)n1
inactive

Same read-out for c1ccc2c(c1)OCC(CN1CCCCC1)O2 (stereo not drawn) ?
inactive

Same read-out for CCC(=O)OCc1ccc(OC)cc1 ?
inactive

Same read-out for c1csc(SSc2cccs2)c1 ?
inactive

Same read-out for COC(=O)[C@H]1[C@H]2C[C@@H]3c4[nH]c5ccccc5c4CCN3C[C@H]2C[C@@H](OC(=O)c2cc(OC)c(OC)c(OC)c2)[C@@H]1OC ?
inactive

====

Experiment: IUF_NPC1_viability_72hr: Viability Assessment at 72 hours in the Leibniz Research Institute for Environmental Medicine (IUF) Neural Progenitor Cell Proliferation Assay (NPC1) (AID 2284209)
Protocol: IUF_NPC1 is a cell-based, multiplexed assay that uses hNPC, a human primary neural progenitor cells, with measurements taken at 72 hours after chemical dosing in a 96-well plate. […] Cell proliferation is assessed as an increase in sphere area using automated phase contrast imaging and as incorporation of Bromodeoxyuridine (BrdU) during DNA synthesis using a luminescence-based cell proliferation ELISA. […] Viability is measured as a fluorescence signal (relative fluorescence unit) in a multiplate reader. […]
Activity calls are given as the source filed them. How the source made its calls: active means hit-call score of the fitted dose curve at least 0.9, where 1 is the maximum; inactive means score below 0.9.
Quantity measured: AC50

> print(dat)
                                   compound          result
1  C[C@@H]1C[C@H]2[C@@H]3CCC4=CC(=O)C=C[C@]4(C)[C@@]3(F)[C@@H](O)C[C@]2(C)[C@@]1(O)C(=O)CO        inactive
2          C[C@H](CS)C(=O)N1CCC[C@H]1C(=O)O        inactive
3  Cc1c(O)cccc1C(=O)N[C@@H](CSc1ccccc1)[C@H](O)CN1C[C@H]2CCCC[C@H]2C[C@H]1C(=O)NC(C)(C)C  14 µM (active)
4  CN(C)CCC(c1ccc(Cl)cc1)c1ccccn1 (stereo unspecified)        inactive
5  CC(C)(C)NCC(O)c1cc(O)cc(O)c1 (stereo unspecified)        inactive

// moving on: another record for AC50
Entry NC(N)=Nc1nc(CSCCC(N)=NS(N)(=O)=O)cs1 has what AC50?
inactive

====

Test: CCTE_Shafer_MEA_acute_per_network_burst_spike_number_std: CCTE's Neural Acute Assay for Standard Deviation of Number of Spikes in a Network Burst, Shafer Lab (AID 2284020);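 note: fitted for decrease in spike-number SD versus DMSO so actives lower it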
Activity calls are given as the source filed them. How the source made its calls: active means hit-call score of the fitted dose curve at least 0.9, where 1 is the maximum; inactive means score below 0.9.
Respond only with the outcome that fits, drawn from active, inactive

Examples from the recorded data:
> print(dat)
                                   compound  class.label
1  CNCCC(Oc1ccc(C(F)(F)F)cc1)c1ccccc1 (stereo not drawn)     inactive
2  CC(C)C1OCCN1CCOC(=O)NCCCCCCNC(=O)OCCN1CCOC1C(C)C (stereo not drawn)     inactive
3                   C1CN(CCOCCN2CCOCC2)CCO1     inactive
4        COc1cc(CNC(=O)CCCC/C=C/C(C)C)ccc1O     inactive
5  CN(C)C(=O)C(CCN1CCC(O)(c2ccc(Cl)cc2)CC1)(c1ccccc1)c1ccccc1     inactive

# outcome recorded in this test, key = CC1(C)S[C@@H]2[C@H](NC(=O)[C@H](N)c3ccccc3)C(=O)N2[C@H]1C(=O)O
inactive

Same read-out for CC1(C)S[C@@H]2[C@H](NC(=O)[C@H](N)c3ccc(O)cc3)C(=O)N2[C@H]1C(=O)O ?
inactive

Same read-out for CN(C)CCC(c1ccc(Cl)cc1)c1ccccn1 (stereo not drawn) ?
active

Same read-out for NC(N)=Nc1nc(CSCCC(N)=NS(N)(=O)=O)cs1 ?
inactive

====

Experiment: TOX21_p53_BLA_p3_viability: Viability Assessment in the Tox21 HCT-116 p53 Agonism Beta-lactamase Assay, Phase 3 (AID 2283593);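 note: cells exposed to compound for 16 h before reading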
Inconclusive results are not listed. Calls of active or inactive are those of the source. How the source made its calls: active means hit-call score of the fitted dose curve at least 0.9, where 1 is the maximum; inconclusive means response in the unintended direction; inactive means score below 0.9.
Respond only with the outcome that fits, drawn from T = active, F = inactive

Examples from the recorded data:
Compound	Class label
OCCOCCN1CCN(C(c2ccccc2)c2ccc(Cl)cc2)CC1 (configuration not stated)	F
CN(C)CCOC1=Cc2ccccc2Sc2ccc(Cl)cc21	F

# outcome recorded in this test, key = CCN1CC(CCN2CCOCC2)C(c2ccccc2)(c2ccccc2)C1=O (configuration not stated)
F

Same read-out for CO[Si](CCCNCCC[Si](OC)(OC)OC)(OC)OC ?
F

Same read-out for CO[C@H]1/C=C/O[C@@]2(C)Oc3c(C)c(O)c4c(O)c(c5c(c4c3C2=O)=NC2(CCN(CC(C)C)CC2)N=5)NC(=O)/C(C)=C\C=C\[C@H](C)[C@H](O)[C@@H](C)[C@@H](O)[C@@H](C)[C@H](OC(C)=O)[C@@H]1C ?
F

Same read-out for CC(C)N=c1cc2n(-c3ccc(Cl)cc3)c3ccccc3nc-2cc1Nc1ccc(Cl)cc1 ?
F

Same read-out for CCOC(=O)c1c(C)n(C)c2ccc(O)cc12 ?
F

Same read-out for NC(=O)CCCCC1CCSS1 (configuration not stated) ?
F

Same read-out for CC1(C)S[C@@H]2[C@H](N3C(=O)C(c4ccccc4)NC3(C)C)C(=O)N2[C@H]1C(=O)O (some centres not stated) ?
F

Same read-out for CCCCCCCCS(=O)(=O)Cl ?
F

Same read-out for CCN(CC)CCC(=O)N1c2ccccc2Sc2ccc(Cl)cc21 ?
F

Same read-out for NC(=S)NS(=O)(=O)c1ccc(N)cc1 ?
F

Same read-out for OCC1CC2CC1C1CCC(CO)C21 (configuration not stated) ?
F

Same read-out for COC[C@H](c1ccc(C(F)(F)F)cc1)N1CCN(C2(C)CCN(C(=O)c3c(C)ncnc3C)CC2)C[C@H]1C ?
F

Same read-out for N#CCc1cccc(C(F)(F)F)c1 ?
F

====

Tested on: SRY-box transcription factor 2 (SOX2) Protein Expression, Deisenroth Lab, SOX2 (gene 6657)
Assay: CCTE_Deisenroth_DEVTOX-GLR_Pluri_SOX2: CCTE's DevTox GLR-Pluri Assay Evaluation of SRY-box transcription factor 2 (SOX2) Protein Expression, Deisenroth Lab (AID 2284428)
Activity calls are given as the source filed them. How the source made its calls: active means hit-call score of the fitted dose curve at least 0.9, where 1 is the maximum; inactive means score below 0.9.
Measured AC50 accompanies every entry in the list below.

Field: example entries. Status: answers known.
> print(dat)
                              smiles.record                                       tgt  quantity.measured             result
1  CC1=C(/C=C/C(C)=C/C=C/C(C)=C\C(=O)O)C(C)(C)CCC1  SRY-box transcription factor 2 (SOX2) Protein Expression, Deisenroth Lab, SOX2 (gene 6657)               AC50   1.78 µM (active)
2  Cc1nc2sccn2c(=O)c1CCN1CCC(=C(c2ccc(F)cc2)c2ccc(F)cc2)CC1  SRY-box transcription factor 2 (SOX2) Protein Expression, Deisenroth Lab, SOX2 (gene 6657)               AC50   16.9 µM (active)
3  CNC(=O)c1cc(Oc2ccc(NC(=O)Nc3ccc(Cl)c(C(F)(F)F)c3)cc2)ccn1  SRY-box transcription factor 2 (SOX2) Protein Expression, Deisenroth Lab, SOX2 (gene 6657)               AC50   29.3 µM (active)
4  O=C1Cc2cc(CCN3CCN(c4nsc5ccccc45)CC3)c(Cl)cc2N1  SRY-box transcription factor 2 (SOX2) Protein Expression, Deisenroth Lab, SOX2 (gene 6657)               AC50   4.27 µM (active)
5  Cc1nc(Nc2ncc(C(=O)Nc3c(C)cccc3Cl)s2)cc(N2CCN(CCO)CC2)n1  SRY-box transcription factor 2 (SOX2) Protein Expression, Deisenroth Lab, SOX2 (gene 6657)               AC50  0.621 µM (active)

// moving on: another record for AC50
Entry Cc1ccc(NC(=O)c2ccc(CN3CCN(C)CC3)cc2)cc1Nc1nccc(-c2cccnc2)n1 has what AC50?
15.7 µM (active)
